# experiment: Systemic (plasma) exposure after oral and subcutaneous administration to rats
# Type: in vivo
# conditions: rat, plasma, sc; male rats, subcutaneous, single dose 500 mg/kg; read-out: average maximum plasma concentration (Cmax)
property.name: Cmax (µg/mL)
Write down the numeric answer in µg/mL and omit the unit.

QUERY: Read the entry CS(=O)(=O)CCC#N [MSPN, 3-methanesulfonylpropionitrile] and write its reported Cmax.
RESULT: 3300

* * *

# experiment: Systemic (plasma) exposure after oral and subcutaneous administration to rats
# Type: in vivo
# conditions: rat, plasma, sc; male rats, subcutaneous, single dose 160 mg/kg; read-out: average maximum plasma concentration (Cmax)
property.name: Cmax (µg/mL)
Write down the numeric answer in µg/mL and omit the unit.

QUERY: Read the entry CS(=O)(=O)CCC#N and write its reported Cmax.
RESULT: 760

The reported measurements were obtained from patent US9592217B2.
